- TARGET ENTITY: C. elegans (N2) complex I (NADH:ubiquinone oxidoreductase) (Caenorhabditis elegans, UniProt P24887+Q93873+Q94360)
- Sequence (Q94360 17-199): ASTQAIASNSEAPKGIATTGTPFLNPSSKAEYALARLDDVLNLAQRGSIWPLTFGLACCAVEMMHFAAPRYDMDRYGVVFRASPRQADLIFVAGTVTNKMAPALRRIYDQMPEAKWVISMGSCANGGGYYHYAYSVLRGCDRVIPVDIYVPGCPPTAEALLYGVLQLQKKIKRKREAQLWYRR
- Sequence (P24887 whole entry): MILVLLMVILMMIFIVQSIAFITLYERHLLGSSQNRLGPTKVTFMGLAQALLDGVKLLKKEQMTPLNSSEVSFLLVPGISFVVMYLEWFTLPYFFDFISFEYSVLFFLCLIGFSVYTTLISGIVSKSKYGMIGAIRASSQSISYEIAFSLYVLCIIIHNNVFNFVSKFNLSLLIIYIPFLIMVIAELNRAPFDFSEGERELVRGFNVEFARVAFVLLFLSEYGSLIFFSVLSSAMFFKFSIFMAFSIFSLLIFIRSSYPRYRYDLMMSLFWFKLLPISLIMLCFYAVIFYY
- Sequence (Q93873 31-482): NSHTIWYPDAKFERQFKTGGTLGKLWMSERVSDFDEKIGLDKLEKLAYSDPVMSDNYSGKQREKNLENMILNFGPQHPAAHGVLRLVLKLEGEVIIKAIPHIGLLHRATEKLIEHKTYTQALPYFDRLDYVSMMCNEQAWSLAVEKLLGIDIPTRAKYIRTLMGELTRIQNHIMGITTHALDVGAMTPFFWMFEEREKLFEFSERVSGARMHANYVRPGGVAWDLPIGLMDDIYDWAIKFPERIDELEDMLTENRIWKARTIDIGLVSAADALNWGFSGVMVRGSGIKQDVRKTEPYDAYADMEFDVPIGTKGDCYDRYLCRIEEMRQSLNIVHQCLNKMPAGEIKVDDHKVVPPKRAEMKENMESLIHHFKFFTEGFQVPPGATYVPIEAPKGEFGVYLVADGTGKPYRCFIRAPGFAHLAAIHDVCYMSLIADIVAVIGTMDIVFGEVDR
- ASSAY REMARKS: biochemical
- Format: biochemical
- MEASUREMENT SETUP: Dose 0.001 µM; read-out: C. elegans mitochondrial complex I activity
MEASURE: activity at 0.001 µM
Answer as a quantity: numeral, then unit.

Cc1ccc(OCCn2cnc3ccccc32)c(C)c1 : 103%
Cc1ccccc1OCCCCn1cnc2ccccc21 : 142%
Cc1ccc(C(C)C)c(OCC(O)Cn2cnc3ccccc32)c1 (centres unmarked) : 98.6%
Cc1ccc(OCCn2cnc3ccccc32)cc1 : 95.3%

stdin: Using the record for "Clc1ccc(SCCCCn2cnc3ccccc32)cc1" , state its measured activity at 0.001 µM.
stdout: 93.5%

---

- Test system: anthelmintic/nematicide-resistant C. elegans mutant strains
- ASSAY REMARKS: microbe, parasite or virus in culture
- MEASUREMENT SETUP: Caenorhabditis elegans, read-out: C. elegans Development & Viability LC50, bre-1(ye4)
MEASURE: LC50 (µM)
I only need the number, in µM, no unit after it.

Cc1nc2ccccc2n1Cc1ccc(Cl)cc1 : 31.1

stdin: Using the record for "Cc1ccccc1OCCCCn1cnc2ccccc21" , state its measured LC50.
stdout: 41.2

stdin: Using the record for C=C(C)[C@H]1Cc2c(ccc3c2O[C@@H]2COc4cc(OC)c(OC)cc4[C@@H]2C3=O)O1 [Rotenone, reference compound] , state its measured LC50.
stdout: 3.5

---

Entries and their measured C. elegans KCN Survival follow.
- Tested on: L1 wild-type C. elegans
- MEASUREMENT SETUP: Dose 0.2 µM; mean of at least three biological replicates
Give your answer as a number; write no unit.

stdin: Using the record for "Cc1ccccc1OCCCCn1cnc2ccccc21" , state its measured C. elegans KCN Survival.
stdout: 1.002

stdin: Using the record for "Nc1nc2ccccc2n1Cc1ccc(Cl)cc1" , state its measured C. elegans KCN Survival.
stdout: 0.973

stdin: Using the record for "Cc1ccc(SCCCn2cnc3ccccc32)cc1" , state its measured C. elegans KCN Survival.
stdout: 0.990

stdin: Using the record for "Clc1ccc(Cn2cnc3ccccc32)cc1Cl" , state its measured C. elegans KCN Survival.
stdout: 1.000

---

- ASSAY REMARKS: in vitro
- MEASUREMENT SETUP: human, HEK293 viability, dose 25 µM; individual replicate (Rep)
MEASURE: viability
Answer as a quantity: numeral, then unit.

stdin: Using the record for C=C(C)[C@H]1Cc2c(ccc3c2O[C@@H]2COc4cc(OC)c(OC)cc4[C@@H]2C3=O)O1 [Rotenone, reference compound] , state its measured viability.
stdout: 20.1%

---

- TARGET ENTITY: B. taurus (heart) complex I (Bos taurus, UniProt P03887+P17694+P42026)
- Sequence (P03887 whole entry): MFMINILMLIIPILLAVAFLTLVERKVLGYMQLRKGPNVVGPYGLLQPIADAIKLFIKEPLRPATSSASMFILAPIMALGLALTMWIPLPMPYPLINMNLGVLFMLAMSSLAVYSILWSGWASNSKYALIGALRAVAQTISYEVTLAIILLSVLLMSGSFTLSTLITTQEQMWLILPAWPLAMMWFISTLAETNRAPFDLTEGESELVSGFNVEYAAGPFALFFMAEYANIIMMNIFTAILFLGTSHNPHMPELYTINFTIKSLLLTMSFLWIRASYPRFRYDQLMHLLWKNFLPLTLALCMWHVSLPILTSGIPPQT
- Sequence (P17694 34-463): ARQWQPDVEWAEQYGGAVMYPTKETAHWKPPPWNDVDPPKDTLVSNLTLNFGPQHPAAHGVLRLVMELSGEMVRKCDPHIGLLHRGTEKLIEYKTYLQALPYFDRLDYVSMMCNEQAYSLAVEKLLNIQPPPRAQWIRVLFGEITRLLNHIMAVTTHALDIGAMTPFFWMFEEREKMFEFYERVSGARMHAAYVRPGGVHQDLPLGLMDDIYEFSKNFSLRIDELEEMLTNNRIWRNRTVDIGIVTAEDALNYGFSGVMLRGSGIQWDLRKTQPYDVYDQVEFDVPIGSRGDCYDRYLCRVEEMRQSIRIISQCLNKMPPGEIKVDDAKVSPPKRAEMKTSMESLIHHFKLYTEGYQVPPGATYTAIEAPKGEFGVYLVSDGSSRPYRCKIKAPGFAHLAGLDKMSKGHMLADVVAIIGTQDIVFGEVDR
- Sequence (P42026 38-216): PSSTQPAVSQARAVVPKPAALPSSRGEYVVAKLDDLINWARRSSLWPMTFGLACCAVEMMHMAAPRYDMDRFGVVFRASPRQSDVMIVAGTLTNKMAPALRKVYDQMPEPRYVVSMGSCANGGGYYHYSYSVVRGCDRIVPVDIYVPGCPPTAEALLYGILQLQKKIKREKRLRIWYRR
- ASSAY REMARKS: biochemical
- Type: biochemical
- MEASUREMENT SETUP: Dose 15 µM; read-out: B. taurus mitochondrial complex I activity
- Method: Six 8–10-week-old C57Bl/6 female mice (Charles River) were freshly dissected, and their livers and hearts collected into separate 1.5 mL microcentrifuge tubes. Organs were flash-frozen in liquid nitrogen and stored at −80 °C prior to use. […] The enzymatic activities of individual ETC complexes (I-IV) were assessed spectrophotometrically in isolated mitochondria using a Varioskan LUX Multimode plate reader (ThermoFisher Scientific). […]
Response field class: enum, chosen by comparing activity at 15 µM against group 1 (below 10%), group 2 (10% to below 30%), group 3 (30% or more)

# example entries with known answers
Clc1ccc(Cn2cnc3ccccc32)cc1Cl : group 3
Cc1ccc(C(C)C)c(OCC(O)Cn2cnc3ccccc32)c1 (centres unmarked) : group 2
CCc1cc(OCCn2cnc3ccccc32)ccc1Cl : group 2
Cc1ccccc1OCCCCn1cnc2ccccc21 : group 1
Cc1ccc(OCCn2cnc3ccccc32)cc1 : group 3

stdin: # bin label for "CCCOc1ccc(Cn2cnc3ccccc32)cc1"
stdout: group 2

stdin: # bin label for "Cc1ccc(SCCCCn2cnc3ccccc32)cc1"
stdout: group 2
